target: Human cGAS amino acids 155-522 (Homo sapiens (Human)); assay: cGAS biochemical activity assay (ATP remaining, Kinase-Glo Max luminescence); conditions: human cGAS 155-522, ATP remaining (Kinase-Glo Max); read-out: cGAS IC50
pIC50: −log10 of the molar value.
Reported pIC50 values for the following compounds.

Please review the following examples before continuing.
[
  {
    "COMPOUND": "Cc1[nH]c2c(-c3ccccc3)c(C(F)(F)F)nn2c(=O)c1C(=O)Nc1ccccc1N [Compound A1006]",
    "pIC50": "> 4.70"
  },
  {
    "COMPOUND": "Cc1noc(C)c1NC(=O)c1c(C)[nH]c2c(-c3ccccc3)c(C(F)(F)F)nn2c1=O [Compound A1019]",
    "pIC50": "< 3.60"
  },
  {
    "COMPOUND": "Cc1[nH]c2c(-c3ccccc3)c(C(F)(F)F)nn2c(=O)c1C(=O)Nc1cccc(NS(C)(=O)=O)c1 [Compound A1045]",
    "pIC50": "> 4.70"
  }
]

Q: Retrieve pIC50 measured for COc1cccc2oc(-c3c(C(=O)N4CCCCC4)[nH]c4c(-c5ccccc5)c(C(F)(F)F)nn4c3=O)nc12 [Compound C1186] and print it.
A: 3.60 to 4.70

---

target: Human cGAS amino acids 155-522 (Homo sapiens (Human), UniProt Q8N884); assay: cGAS biochemical activity assay (ATP remaining, Kinase-Glo Max luminescence); conditions: human cGAS 155-522, ATP remaining (Kinase-Glo Max); read-out: cGAS IC50
Sequence (Q8N884 157-522): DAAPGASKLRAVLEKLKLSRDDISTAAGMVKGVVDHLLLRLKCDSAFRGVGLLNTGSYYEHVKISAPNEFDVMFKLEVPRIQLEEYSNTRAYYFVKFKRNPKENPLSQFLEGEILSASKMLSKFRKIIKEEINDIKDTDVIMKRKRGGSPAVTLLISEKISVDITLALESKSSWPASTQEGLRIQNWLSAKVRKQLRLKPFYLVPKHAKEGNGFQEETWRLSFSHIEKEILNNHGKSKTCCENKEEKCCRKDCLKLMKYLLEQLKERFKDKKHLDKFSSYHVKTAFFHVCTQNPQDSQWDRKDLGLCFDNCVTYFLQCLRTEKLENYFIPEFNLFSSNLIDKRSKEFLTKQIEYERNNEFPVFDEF
QUANTITY KIND: IC50

Please review the following examples before continuing.
[
  {
    "COMPOUND SMILES": "COc1cccc2oc(-c3c(-c4conc4C)[nH]c4c(-c5ccccc5)c(C(F)(F)F)nn4c3=O)nc12",
    "TARGET OR SYSTEM": "Human cGAS amino acids 155-522 (Homo sapiens (Human), UniProt Q8N884)",
    "ENDPOINT VALUE": "< 20 µM"
  },
  {
    "COMPOUND SMILES": "COc1cccc2oc(-c3c(C)[nH]c4c(-c5ccccn5)c(C(F)(F)F)nn4c3=O)nc12",
    "TARGET OR SYSTEM": "Human cGAS amino acids 155-522 (Homo sapiens (Human), UniProt Q8N884)",
    "ENDPOINT VALUE": "20 to 250 µM"
  },
  {
    "COMPOUND SMILES": "Cc1[nH]c2c(-c3ccccc3)c(C(F)(F)F)nn2c(=O)c1-c1nc2ccccc2[nH]1",
    "TARGET OR SYSTEM": "Human cGAS amino acids 155-522 (Homo sapiens (Human), UniProt Q8N884)",
    "ENDPOINT VALUE": "20 to 250 µM"
  },
  {
    "COMPOUND SMILES": "Cc1[nH]c2c(-c3ccccc3)c(C(F)(F)F)nn2c(=O)c1C(=O)Nc1nc(C(C)C)co1",
    "TARGET OR SYSTEM": "Human cGAS amino acids 155-522 (Homo sapiens (Human), UniProt Q8N884)",
    "ENDPOINT VALUE": "20 to 250 µM"
  },
  {
    "COMPOUND SMILES": "COc1cccc(NC(=O)c2c(C)[nH]c3c(-c4ccccc4)c(C(F)(F)F)nn3c2=O)n1",
    "TARGET OR SYSTEM": "Human cGAS amino acids 155-522 (Homo sapiens (Human), UniProt Q8N884)",
    "ENDPOINT VALUE": "< 20 µM"
  },
  {
    "COMPOUND SMILES": "COCCn1c(-c2c(C)[nH]c3c(-c4ccccc4)c(C(F)(F)F)nn3c2=O)nc2c(OC)cccc21",
    "TARGET OR SYSTEM": "Human cGAS amino acids 155-522 (Homo sapiens (Human), UniProt Q8N884)",
    "ENDPOINT VALUE": "20 to 250 µM"
  }
]

In the following, a different molecule is considered.
Q: Retrieve IC50 measured for `COc1cc(C)cc2oc(-c3c(C)[nH]c4c(-c5ccccc5)c(C(F)(F)F)nn4c3=O)nc12` and print it.
A: < 20 µM

All values here come from patent US10738056B2.
